The values you see were collected from PubChem BioAssay (NCI).

tested on: HCT-116 colon; test: NCI tumour cell line growth inhibition, 48 h
endpointName: TGI

Recorded TGI, per entry:
In [3]: df
Out[3]:
                                   molecule    result
0  O=C([O-])c1ccc(C(=O)[O-])cc1.O=C([O-])c1ccc(C(=O)[O-])cc1.[Mo+2].[Mo+2]  > 100 µM
1    CCOC(=O)c1cc2c(n1Cc1ccccc1)-c1oncc1CC2   13.7 µM
2  O=C(c1ccccc1)c1nc2ccc(C(F)(F)F)cc2[n+]([O-])c1C(F)(F)F  > 100 µM
3  CCN1C(=O)N(c2ccccc2)C2NN=c3s/c(=C4\C(=O)N(C(C)C)c5ccccc54)c(=O)n3C21 (configuration not stated)   8.24 µM
4  O=C=NCCCCCCN1C(=O)N2C(c3ccccc3)N(CCCCCCN=C=O)C(=O)N2C1c1ccccc1 (configuration not stated)  > 100 µM
5  N#CC1(C=O)c2ccccc2C=CN1C(=O)c1ccccc1 (configuration not stated)  > 100 µM
6   COc1ccc(-c2cc(=O)c3c(O)cc(C)cc3o2)cc1OC  > 100 µM
7  COc1ccc(C2SC(C)C(=O)N2c2nc(-c3nc(-c4ccc(Cl)cc4)cs3)cs2)cc1 (configuration not stated)  > 100 µM
8  Cc1nc(Nc2ccc([N+](=O)[O-])cc2)sc1C(/C=C/c1ccc(N(C)C)cc1)=N/NC(=O)c1ccccc1  > 100 µM
9  O=C(NC(Nc1ccc(F)c(Cl)c1)(C(F)(F)F)C(F)(F)F)OCc1ccccc1  > 100 µM

Incoming: What value of TGI has been reported for the following molecule? COc1cc([C@@H]2c3cc4c(cc3[C@@H](NC(=O)c3cccc(F)c3)C3COC(=O)[C@@H]32)OCO4)cc(OC)c1O (some centres not stated)
Outgoing: 13.8 µM

Incoming: Now the molecule Cc1ccc(/C=C/C(=O)c2cc(CN(C)C)c(O)c(CN(C)C)c2)cc1
Outgoing: 39.7 µM

* * *

tested on: SF-268 CNS; assay: NCI tumour cell line growth inhibition, 48 h
The following compounds are shown together with reported TGI values.

Recorded TGI, per entry:
In [3]: df
Out[3]:
                                   compound  endpointname    result
0  CCOC(=O)Nc1ccc(-c2nc(-c3cccc(OC)c3)c(-c3ccnc(Br)c3)[nH]2)cc1           TGI  > 100 µM
1  Cc1cn(C2CC(N)C(C(=O)O)O2)c(=O)[nH]c1=O (stereo not drawn)           TGI  > 100 µM

Incoming: What value of TGI has been reported for the following compound? N#CC(Cc1ccccc1Br)N(CCC1=CCCCC1)C(c1ccccc1)c1ccccc1 (stereo not drawn)
Outgoing: > 100 µM

* * *

test system: UO-31 renal; assay: NCI tumour cell line growth inhibition, 48 h
The following compounds are shown together with reported GI50 values.

Recorded GI50, per entry:
>>> print(df.to_string())
                                   compound    result
0  N[C@@H]1CCCN(c2c(/C=C3\SC(=O)NC3=O)cccc2-c2ccccc2)C1  12700 nM
1  O=C1CCc2c(sc3[nH]c(=S)n(Cc4ccccc4)c(=O)c23)C1   2620 nM
2  O=C(CCCCCCSc1nc(-c2ccc(Cl)cc2)cc(-c2ccc(Cl)cc2)n1)NO    735 nM
3  COc1cc2nc3cc([N+](=O)[O-])ccc3c(NCCCNCC(C)(C)O)c2cc1OC   1460 nM
4  COc1ccc(Cn2cc3c(c2-c2cc(OC)c(OC)c(OC)c2)CCc2cnoc2-3)cc1[N+](=O)[O-]   1260 nM

// below: GI50 requested for another compound
Incoming: What reported GI50 corresponds to O=C(O)C1(Cc2cccc(Nc3nccs3)n2)CCC(Oc2cccc(Cl)c2F)CC1 (stereo unspecified) on UO-31 renal?
Outgoing: 16300 nM

* * *

tested on: RPMI-8226 leukemia; assay: NCI tumour cell line growth inhibition, 48 h
endpointName: TGI

Recorded TGI, per entry:
>>> df
                                   compound  endpointname     result
0        c1ccc(-c2nnc(-c3nsc4ccccc34)o2)cc1           TGI   > 100 µM
1              CN(C)c1n/c(=N/c2ncn[nH]2)ss1           TGI   > 100 µM
2  COc1ccc(-c2cc(-c3cc(OC)c(OC)c(OC)c3)c(C#N)c(N3CCOCC3)n2)cc1O           TGI     3.6 µM
3  COc1cc2c(cc1OCc1ccccc1)NC(=S)[C@@H]1CCCN1C2=S           TGI   > 100 µM
4  C=CCNC1=C2C[C@@H](C)C[C@@H](OC)[C@H](OC(=O)CN)[C@H](C)/C=C(\C)[C@@H](OC(N)=O)[C@H](OC)/C=C\C=C(/C)C(=O)NC(=CC1=O)C2=O           TGI  > 52.3 µM
5  CCC[CH2][Sn]([CH2]CCC)([O]C(=O)C1CCC(=O)N1)[O]C(=O)C1CCC(=O)N1 (stereo unspecified)           TGI   0.669 µM
6      C/C(=C\c1ccc(Cl)c(Cl)c1)[N+](=O)[O-]           TGI    3.17 µM
7                     O=C(O)C12CCCC(CCC1)C2           TGI   > 100 µM
8  C=C(Cl)C(=C)CCC(Cl)C(C)C (stereo unspecified)           TGI   > 100 µM
9  Cc1ccc(S(=O)(=O)NC(=O)Nc2ccc(S(N)(=O)=O)cc2S(N)(=O)=O)cc1           TGI   > 100 µM

Incoming: What value of TGI has been reported for the following compound? Cc1ccc(S(=O)(=O)Cc2nc(-c3ccc(C(=O)NCc4cccnc4)cc3)oc2C)cc1
Outgoing: > 100 µM

Incoming: Now the compound COc1cc([C@@H]2c3cc4c(cc3[C@@H](NC(=O)c3cccc(F)c3)C3COC(=O)[C@@H]32)OCO4)cc(OC)c1O (stereo partly specified)
Outgoing: 5.85 µM

Incoming: Now the compound Cc1ccc(/C=C/C(=O)c2cc(CN(C)C)c(O)c(CN(C)C)c2)cc1
Outgoing: 48.3 µM

Incoming: Now the compound Nc1nnc(Cn2c(-c3ccccc3)nc3ccc(Br)cc3c2=O)s1
Outgoing: 62.8 µM

Incoming: Now the compound COc1cccc(C2C3=C(COC3=O)Oc3cc4c(cc32)OCO4)c1 (stereo unspecified)
Outgoing: 3.03 µM

Incoming: Now the compound Cc1nc2n(c(=O)c1CCN1CCC(c3noc4cc(F)ccc34)CC1)CCCC2
Outgoing: > 50 µM

Incoming: Now the compound CC(C)C(/C=C/c1ccc(Br)cc1)=N\NC(N)=O
Outgoing: > 100 µM

Incoming: Now the compound NC(Cc1ccccc1)(C(=O)O)C(=O)O
Outgoing: > 100 µM

Incoming: Now the compound CCCCC(=O)Oc1ccc2c(C)cc(=O)oc2c1
Outgoing: > 100 µM

Incoming: Now the compound CCc1nc(N)nc(N)c1-c1ccc(NCCc2ccccc2)c([N+](=O)[O-])c1
Outgoing: 7.35 µM

Incoming: Now the compound O=C([O-])c1ccc(C(=O)[O-])cc1.O=C([O-])c1ccc(C(=O)[O-])cc1.[Mo+2].[Mo+2]
Outgoing: > 100 µM

* * *

system: LXFL 529 NSCLC; assay: NCI tumour cell line growth inhibition, 48 h
endpointName: TGI

Recorded TGI, per entry:
                                 smilestext    result
0         COC(=O)c1ccc(Cc2ccc(C(=O)OC)o2)o1  > 378 µM
1       C=CCN(C)CN(C)c1nc(N(C)C)nc(N(C)C)n1     89 µM
2  COCCOCC(=O)N(CCn1ccc(NC(c2ccccc2)(c2ccccc2)c2ccccc2)nc1=O)CCn1cnc2nc(N)[nH]c(=O)c21  > 100 µM
3   Cc1ccc(C)c(NC(=O)CCc2nc(=S)[nH][nH]2)c1  > 100 µM

Incoming: What value of TGI has been reported for the following compound? CC(C)C(/C=C/c1ccc(Br)cc1)=N\NC(N)=O
Outgoing: > 100 µM

Incoming: Now the compound O=C1CC(=O)N(CCc2ccccc2)S(=O)(=O)N1CCc1ccccc1
Outgoing: 40.7 µM

* * *

test system: KM12 colon; assay: NCI tumour cell line growth inhibition, 48 h
The following compounds are shown together with reported TGI values.

Recorded TGI, per entry:
In [3]: df
Out[3]:
                                   compound  measuredtarget  endpointname    result
0  NC(N)=NCCCC(NC(=O)OCCCCCCn1ccc(N)nc1=O)C(=O)O (stereo unspecified)      KM12 colon           TGI  > 100 µM
1  COc1cc2c(cc1OC)C(=O)C(C1=C(SC(=N)N)C(=O)c3cc(OC)c(OC)cc31)C2 (stereo unspecified)      KM12 colon           TGI  > 100 µM
2  COc1cc([C@@H]2c3cc4c(cc3[C@@H](NC(=O)c3cccc(F)c3)C3COC(=O)[C@@H]32)OCO4)cc(OC)c1O (stereo partly specified)      KM12 colon           TGI    7.2 µM

Incoming: What value of TGI has been reported for the following compound? O=C(O)c1oc(C(=O)O)c(C(=O)O)c1C(=O)O
Outgoing: > 100 µM

Incoming: Now the compound CCCCCC/C=C\CCCCCCCCCC1=CC(=O)C=C(OC)C1=O
Outgoing: 19.2 µM

Incoming: Now the compound Cc1cn(C2CC(N)C(C(=O)O)O2)c(=O)[nH]c1=O (stereo unspecified)
Outgoing: > 100 µM

Incoming: Now the compound COc1ccc(C2SC(C)C(=O)N2c2nc(-c3nc(-c4ccc(Cl)cc4)cs3)cs2)cc1 (stereo unspecified)
Outgoing: > 100 µM

Incoming: Now the compound O=c1cc(-c2ccccc2)oc2cc(OCCSCCCCCCCCCCSCCOc3ccc4c(=O)cc(-c5ccccc5)oc4c3)ccc12
Outgoing: > 100 µM

Incoming: Now the compound Cc1c(C)c(S(=O)(=O)N(CCCN)OCCCN)c(C)c2c1OC(C)(C)C2
Outgoing: 38.9 µM

Incoming: Now the compound COc1cc(/C=C2/C(=O)N(C(=O)c3ccc(Cl)cc3)N=C2C)cc(OC)c1OC
Outgoing: > 100 µM

Incoming: Now the compound Nc1nnc(Cn2c(-c3ccccc3)nc3ccc(Br)cc3c2=O)s1
Outgoing: > 100 µM

Incoming: Now the compound O=C(CCN1CCOCC1)Nc1ccc2sc3ccccc3c(=O)c2n1
Outgoing: > 100 µM

Incoming: Now the compound CS(=O)(=O)CCNCc1ccc(-c2ccc3ncnc(Nc4ccc(OCc5ccccc5)c(Cl)c4)c3c2)o1
Outgoing: 17.8 µM

Incoming: Now the compound COc1ccc(/C=C2\N=C(NN)N=C2Cl)cc1
Outgoing: > 100 µM

Incoming: Now the compound Cn1ncnc1CCc1ccccc1
Outgoing: > 100 µM

Incoming: Now the compound CCc1nc(Cl)nc(Cl)c1Cl
Outgoing: 15.5 µM

Incoming: Now the compound C=CC(C)CCC(C/C=C(\C)CCC=C(C)C)C(=C)CCCC(C)C (stereo unspecified)
Outgoing: > 100 µM

Incoming: Now the compound CN(C[C@@H]1COCCO1)S(=O)(=O)Nc1ccc2ccc3ncc(-c4cnn(C)c4)cc3c(=O)c2c1
Outgoing: > 100 µM

Incoming: Now the compound NC(=Nc1ccc(O)cc1)S(=O)O
Outgoing: > 100 µM

Incoming: Now the compound COC(=O)c1ccc(Cc2ccc(C(=O)OC)o2)o1
Outgoing: > 378 µM

Incoming: Now the compound Cc1ccc(/C=C/C(=N/NC(=O)N/N=C(/C=C/c2ccc(C)cc2)C(C)(C)CN2CCCCC2)C(C)(C)CN2CCCCC2)cc1
Outgoing: 3.01 µM
